biological target: Epidermal growth factor receptor (Homo sapiens, UniProt P00533, L858R); assay: Inhibition of recombinant human GST-tagged EGFR L858R mutant expressed in baculovirus expression system using Tyr 04 as substrate incubated for 1 hr by Z'-LYTE assay
Sequence (P00533 25-1210 L858R limits assumed): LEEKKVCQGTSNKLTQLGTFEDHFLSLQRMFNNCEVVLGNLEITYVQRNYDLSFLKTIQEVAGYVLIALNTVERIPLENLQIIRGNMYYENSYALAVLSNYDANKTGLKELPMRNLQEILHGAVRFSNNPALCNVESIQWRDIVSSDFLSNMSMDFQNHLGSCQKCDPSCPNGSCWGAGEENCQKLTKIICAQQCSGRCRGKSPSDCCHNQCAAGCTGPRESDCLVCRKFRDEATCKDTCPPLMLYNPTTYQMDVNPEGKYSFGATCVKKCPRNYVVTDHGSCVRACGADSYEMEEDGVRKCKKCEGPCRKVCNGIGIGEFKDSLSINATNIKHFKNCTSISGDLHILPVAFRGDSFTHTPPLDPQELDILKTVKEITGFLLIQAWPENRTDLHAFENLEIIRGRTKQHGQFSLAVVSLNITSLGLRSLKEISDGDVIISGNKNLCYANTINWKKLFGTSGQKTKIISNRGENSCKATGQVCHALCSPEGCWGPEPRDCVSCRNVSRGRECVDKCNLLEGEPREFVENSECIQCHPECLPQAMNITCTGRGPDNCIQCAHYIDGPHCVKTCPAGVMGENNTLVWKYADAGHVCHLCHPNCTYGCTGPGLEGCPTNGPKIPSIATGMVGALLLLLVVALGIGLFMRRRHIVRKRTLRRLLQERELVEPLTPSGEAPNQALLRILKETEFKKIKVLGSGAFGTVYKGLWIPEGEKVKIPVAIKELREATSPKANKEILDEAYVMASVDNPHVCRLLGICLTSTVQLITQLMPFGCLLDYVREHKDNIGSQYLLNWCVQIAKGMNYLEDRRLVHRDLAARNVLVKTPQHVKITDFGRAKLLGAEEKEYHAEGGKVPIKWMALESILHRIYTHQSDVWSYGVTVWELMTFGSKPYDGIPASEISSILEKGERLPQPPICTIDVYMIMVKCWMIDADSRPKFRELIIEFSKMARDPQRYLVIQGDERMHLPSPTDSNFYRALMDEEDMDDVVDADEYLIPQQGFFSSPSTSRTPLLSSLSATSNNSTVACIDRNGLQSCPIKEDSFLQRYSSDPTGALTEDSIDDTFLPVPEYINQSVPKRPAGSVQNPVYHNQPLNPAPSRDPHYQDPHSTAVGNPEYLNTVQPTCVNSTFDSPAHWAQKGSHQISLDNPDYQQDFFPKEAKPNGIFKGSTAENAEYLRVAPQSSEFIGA
Listed compounds paired with reported IC50

Before answering, review these 5 worked examples.
compound: C=CC(=O)Nc1cc(Nc2nccc(-c3cn(C)c4ccccc34)n2)c(OC)cc1[S+]([O-])CCN(C)C (single isomer, unassigned; (-))
result-type: IC50
result: 4 nM
//
compound: C=CC(=O)Nc1cc(Nc2nccc(-c3cn(C)c4ccccc34)n2)c(OC)cc1N1CCSCC1
result-type: IC50
result: 79 nM
//
compound: C=CC(=O)Nc1cc(Nc2nccc(-c3cn(C)c4ccccc34)n2)c(OC)cc1N1CCS(=O)(=O)CC1
result-type: IC50
result: 46 nM
//
compound: C=CC(=O)Nc1cc(Nc2nccc(-c3cn(C)c4ccccc34)n2)c(OC)cc1[S+]([O-])CCN(C)C (stereo in doubt; (+)-4i)
result-type: IC50
result: 6 nM
//
compound: C=CC(=O)Nc1cc(Nc2nccc(-c3cn(C)c4ccccc34)n2)c(OC)cc1N(C)CCCl
result-type: IC50
result: 421 nM

// returns reported IC50 for input C=CC(=O)Nc1cc(Nc2nccc(-c3cn(C)c4ccccc34)n2)c(OC)cc1[S+]([O-])CCN(C)C (racemic)
7 nM

// returns reported IC50 for input C=CC(=O)Nc1cc(Nc2nccc(-c3cn(C)c4ccccc34)n2)c(OC)cc1N(C)CCSC
308 nM

// returns reported IC50 for input C=CC(=O)Nc1cc(Nc2nccc(-c3cn(C)c4ccccc34)n2)c(OC)cc1N1CC[S+]([O-])CC1
65 nM

// returns reported IC50 for input C=CC(=O)Nc1cc(Nc2nccc(-c3cn(C)c4ccccc34)n2)c(OC)cc1N(C)CC[S+](C)[O-] (stereo not given)
475 nM

// returns reported IC50 for input C=CC(=O)Nc1cc(Nc2nccc(-c3cn(C)c4ccccc34)n2)c(OC)cc1SCCN(C)C
14 nM

----------
target: Epidermal growth factor receptor (Homo sapiens, UniProt P00533, L858R/T790M); assay: Inhibition of recombinant human GST-tagged EGFR T790M/L858R mutant expressed in baculovirus expression system using Tyr 04 as substrate incubated for 1 hr by Z'-LYTE assay
Sequence (P00533 25-1210 T790M/L858R limits assumed): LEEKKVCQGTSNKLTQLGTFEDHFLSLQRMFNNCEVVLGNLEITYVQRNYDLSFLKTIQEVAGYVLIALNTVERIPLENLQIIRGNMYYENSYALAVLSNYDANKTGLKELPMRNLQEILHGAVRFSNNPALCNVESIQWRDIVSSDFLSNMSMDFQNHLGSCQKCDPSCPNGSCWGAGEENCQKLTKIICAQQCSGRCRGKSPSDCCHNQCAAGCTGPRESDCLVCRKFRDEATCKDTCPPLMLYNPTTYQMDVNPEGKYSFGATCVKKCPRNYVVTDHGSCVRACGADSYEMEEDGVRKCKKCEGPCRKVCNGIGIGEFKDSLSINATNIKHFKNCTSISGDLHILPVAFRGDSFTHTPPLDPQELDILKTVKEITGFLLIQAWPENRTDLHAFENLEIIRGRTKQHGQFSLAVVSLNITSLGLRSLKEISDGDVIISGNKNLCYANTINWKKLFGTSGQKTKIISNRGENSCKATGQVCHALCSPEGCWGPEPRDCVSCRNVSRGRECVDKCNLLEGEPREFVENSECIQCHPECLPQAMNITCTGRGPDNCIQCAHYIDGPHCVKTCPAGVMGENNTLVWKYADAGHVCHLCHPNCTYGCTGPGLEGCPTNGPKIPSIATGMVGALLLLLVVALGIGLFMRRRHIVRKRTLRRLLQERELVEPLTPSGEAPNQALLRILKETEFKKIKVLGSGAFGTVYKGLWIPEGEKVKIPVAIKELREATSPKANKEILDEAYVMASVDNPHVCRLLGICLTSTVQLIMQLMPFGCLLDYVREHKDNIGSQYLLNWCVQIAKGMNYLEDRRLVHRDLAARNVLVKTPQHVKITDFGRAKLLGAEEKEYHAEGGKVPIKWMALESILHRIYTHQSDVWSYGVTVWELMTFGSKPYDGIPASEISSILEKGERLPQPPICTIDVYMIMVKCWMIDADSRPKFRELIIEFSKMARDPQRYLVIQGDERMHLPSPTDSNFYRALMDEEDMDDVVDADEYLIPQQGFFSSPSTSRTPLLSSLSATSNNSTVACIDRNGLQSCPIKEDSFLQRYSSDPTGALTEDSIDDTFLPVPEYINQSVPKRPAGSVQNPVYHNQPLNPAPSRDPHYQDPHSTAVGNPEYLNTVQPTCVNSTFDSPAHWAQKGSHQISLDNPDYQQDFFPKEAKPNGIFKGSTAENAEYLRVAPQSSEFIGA
result-type: pIC50
// scale note: pIC50 = -log10(conc_M); give the bare number

molecule: C=CC(=O)Nc1cc(Nc2nccc(-c3cn(C)c4ccccc34)n2)c(OC)cc1[S+]([O-])CCN(C)C (single isomer, unassigned; (-))
pIC50: 8.40

molecule: C=CC(=O)Nc1cc(Nc2nccc(-c3cn(C)c4ccccc34)n2)c(OC)cc1N(C)CCSC
pIC50: 6.67

molecule: C=CC(=O)Nc1cc(Nc2nccc(-c3cn(C)c4ccccc34)n2)c(OC)cc1SCCN(C)C
pIC50: 7.96

molecule: C=CC(=O)Nc1cc(Nc2nccc(-c3cn(C)c4ccccc34)n2)c(OC)cc1N1CC[S+]([O-])CC1
pIC50: 7.12

molecule: C=CC(=O)Nc1cc(Nc2nccc(-c3cn(C)c4ccccc34)n2)c(OC)cc1N1CCSCC1
pIC50: 7.19

// returns reported pIC50 for input C=CC(=O)Nc1cc(Nc2nccc(-c3cn(C)c4ccccc34)n2)c(OC)cc1N(C)CCCl
6.91

// returns reported pIC50 for input C=CC(=O)Nc1cc(Nc2nccc(-c3cn(C)c4ccccc34)n2)c(OC)cc1N(C)CC[S+](C)[O-] (stereo not given)
6.98

// returns reported pIC50 for input C=CC(=O)Nc1cc(Nc2nccc(-c3cn(C)c4ccccc34)n2)c(OC)cc1[S+]([O-])CCN(C)C (stereo in doubt; (+)-4i)
8.30

// returns reported pIC50 for input C=CC(=O)Nc1cc(Nc2nccc(-c3cn(C)c4ccccc34)n2)c(OC)cc1[S+]([O-])CCN(C)C (racemic)
8.30

// returns reported pIC50 for input C=CC(=O)Nc1cc(Nc2nccc(-c3cn(C)c4ccccc34)n2)c(OC)cc1N1CCS(=O)(=O)CC1
7.42

----------
test: AUC (0 to t) in ICR mouse at 5 mg/kg, iv; assay type: ADME, organism-based; settings: in vivo
result-type: AUC(0-t) (ng·h/mL)
A number alone suffices; assume ng·h/mL.

// returns reported AUC(0-t) for input C=CC(=O)Nc1cc(Nc2nccc(-c3cn(C)c4ccccc34)n2)c(OC)cc1[S+]([O-])CCN(C)C (single isomer, unassigned; (-))
1290

----------
Listed molecules paired with reported pIC50
test system: PC-9; test: Antiproliferative activity against human PC9 cells expressing EGFR L858R mutant assessed as reduction in cell viability incubated for 72 hrs by MTT assay; format: functional, cell-based; conditions: Homo sapiens, PC-9, 72 h
// scale note: pIC50 = -log10(conc_M); give the bare number

Before answering, review these 2 worked examples.
molecule: C=CC(=O)Nc1cc(Nc2nccc(-c3cn(C)c4ccccc34)n2)c(OC)cc1N1CC[S+]([O-])CC1
result-type: pIC50
recorded-number: 6.75
//
molecule: C=CC(=O)Nc1cc(Nc2nccc(-c3cn(C)c4ccccc34)n2)c(OC)cc1N(C)CCCl
result-type: pIC50
recorded-number: 5.96

// returns reported pIC50 for input C=CC(=O)Nc1cc(Nc2nccc(-c3cn(C)c4ccccc34)n2)c(OC)cc1N(C)CC[S+](C)[O-] (stereo unspecified)
5.83

// returns reported pIC50 for input C=CC(=O)Nc1cc(Nc2nccc(-c3cn(C)c4ccccc34)n2)c(OC)cc1N(C)CCN(C)C
7.80

// returns reported pIC50 for input C=CC(=O)Nc1cc(Nc2nccc(-c3cn(C)c4ccccc34)n2)c(OC)cc1[S+]([O-])CCN(C)C (racemic)
7.77

// returns reported pIC50 for input C=CC(=O)Nc1cc(Nc2nccc(-c3cn(C)c4ccccc34)n2)c(OC)cc1N1CCS(=O)(=O)CC1
7.00

// returns reported pIC50 for input C=CC(=O)Nc1cc(Nc2nccc(-c3cn(C)c4ccccc34)n2)c(OC)cc1N(C)CCO
6.86

// returns reported pIC50 for input C=CC(=O)Nc1cc(Nc2nccc(-c3cn(C)c4ccccc34)n2)c(OC)cc1N(C)CCSC
5.41

// returns reported pIC50 for input C=CC(=O)Nc1cc(Nc2nccc(-c3cn(C)c4ccccc34)n2)c(OC)cc1SCCN(C)C
7.36

// returns reported pIC50 for input C=CC(=O)Nc1cc(Nc2nccc(-c3cn(C)c4ccccc34)n2)c(OC)cc1N1CCSCC1
6.51

// returns reported pIC50 for input C=CC(=O)Nc1cc(Nc2nccc(-c3cn(C)c4ccccc34)n2)c(OC)cc1S(=O)(=O)CCN(C)C
5.64

----------
assay: Cmax in ICR mouse at 5 mg/kg, iv; assay type: ADME, organism-based; design: dose 5 mg/kg, route intravenous; settings: in vivo
result-type: Cmax (ng/mL)
A number alone suffices; assume ng/mL.

// returns reported Cmax for input C=CC(=O)Nc1cc(Nc2nccc(-c3cn(C)c4ccccc34)n2)c(OC)cc1[S+]([O-])CCN(C)C (single isomer, unassigned; (-))
1610

----------
target: Epidermal growth factor receptor (Homo sapiens); assay: Inhibition of recombinant human GST-tagged EGFR (668 to 1210 residues) expressed in baculovirus expression system using Tyr 04 as substrate incubated for 1 hr by Z'-LYTE assay
Listed compounds paired with reported IC50
A number alone suffices; assume nM.

Before answering, review these 6 worked examples.
compound: C=CC(=O)Nc1cc(Nc2nccc(-c3cn(C)c4ccccc34)n2)c(OC)cc1N(C)CC[S+](C)[O-] (stereo not given)
recorded-number: 1740
--
compound: C=CC(=O)Nc1cc(Nc2nccc(-c3cn(C)c4ccccc34)n2)c(OC)cc1N1CC[S+]([O-])CC1
recorded-number: 421
--
compound: C=CC(=O)Nc1cc(Nc2nccc(-c3cn(C)c4ccccc34)n2)c(OC)cc1[S+]([O-])CCN(C)C (single isomer, unassigned; (-))
recorded-number: 229
--
compound: C=CC(=O)Nc1cc(Nc2nccc(-c3cn(C)c4ccccc34)n2)c(OC)cc1N(C)CCCl
recorded-number: 1980
--
compound: C=CC(=O)Nc1cc(Nc2nccc(-c3cn(C)c4ccccc34)n2)c(OC)cc1N1CCSCC1
recorded-number: 522
--
compound: C=CC(=O)Nc1cc(Nc2nccc(-c3cn(C)c4ccccc34)n2)c(OC)cc1[S+]([O-])CCN(C)C (racemic)
recorded-number: 239

// returns reported IC50 for input C=CC(=O)Nc1cc(Nc2nccc(-c3cn(C)c4ccccc34)n2)c(OC)cc1N1CCS(=O)(=O)CC1
339

// returns reported IC50 for input C=CC(=O)Nc1cc(Nc2nccc(-c3cn(C)c4ccccc34)n2)c(OC)cc1[S+]([O-])CCN(C)C (stereo in doubt; (+)-4i)
318

// returns reported IC50 for input C=CC(=O)Nc1cc(Nc2nccc(-c3cn(C)c4ccccc34)n2)c(OC)cc1N(C)CCSC
1430

// returns reported IC50 for input C=CC(=O)Nc1cc(Nc2nccc(-c3cn(C)c4ccccc34)n2)c(OC)cc1SCCN(C)C
329

Value source: ChEMBL document CHEMBL4376823
